- TARGET_OR_SYSTEM: T1, human-CD40-monomer protein (human, UniProt P25942 21-193, limits assumed)
- T1 construct: Soluble monomer generated in house, used as SPR analyte; also called hCD40; hCD40-monomer
- T1 sequence (P25942 21-193 limits assumed): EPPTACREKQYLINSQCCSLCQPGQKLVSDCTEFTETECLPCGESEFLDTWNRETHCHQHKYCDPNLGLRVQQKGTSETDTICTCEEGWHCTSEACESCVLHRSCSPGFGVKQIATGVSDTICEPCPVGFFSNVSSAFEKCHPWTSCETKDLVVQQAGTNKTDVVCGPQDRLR
- PROTOCOL_DETAILS: SPR, Ab captured on protein A, hCD40 monomer 500 and 50 nM, 1:1 fit; supernatant
MEASURED_ATTRIBUTE: kon (M⁻¹ s⁻¹)
Only the number, expressed in M⁻¹ s⁻¹, is required.

Y12XX-hz14 (antibody, human IgG1, kappa, V domains shown, Humanized, IgG1-P238K; supernatant sample) VH: QVQLVQSGAEVKKPGSSVKVSCKASGYAFTSYWMHWVRQAPGQGLEWMGQINPTTGRSQYNEKFKTRVTITADKSTSTAYMELSSLRSEDTAVYYCARWGLQPFAYWGQGTLVTVSS VL: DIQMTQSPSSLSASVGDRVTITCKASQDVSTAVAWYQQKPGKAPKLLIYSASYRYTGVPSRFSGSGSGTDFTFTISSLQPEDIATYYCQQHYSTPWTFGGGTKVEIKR ... 170000
Y12XX-hz29 (antibody, human IgG1, kappa, V domains shown, Humanized, IgG1-P238K; supernatant sample) VH: QVQLVQSGAEVKKPGSSVKVSCKASGYAFTSYWMHWVRQAPGQGLEWMGFINPTTGYSEYNQKFKDRVTITADKSTSTAYMELSSLRSEDTAVYYCARWGLPPFAYWGQGTLVTVSS VL: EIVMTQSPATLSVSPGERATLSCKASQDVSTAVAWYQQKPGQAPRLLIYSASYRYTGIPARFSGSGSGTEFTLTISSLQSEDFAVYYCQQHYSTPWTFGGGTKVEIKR ... 37000
Y12XX-hz30 (antibody, human IgG1, kappa, V domains shown, Humanized, IgG1-P238K; supernatant sample) VH: QVQLVQSGAEVKKPGSSVKVSCKASGYAFTSYWMHWVRQRPGQGLEWMGFINPTTGYSEYNQKFKDRVTITADKSTSTAYMELSSLRSEDTAVYYCARWGLPPFAYWGQGTLVTVSS VL: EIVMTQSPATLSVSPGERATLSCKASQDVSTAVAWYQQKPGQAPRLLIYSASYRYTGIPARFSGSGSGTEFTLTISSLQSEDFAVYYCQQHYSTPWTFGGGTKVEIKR ... 41000
Y12XX-hz17 (antibody, human IgG1, kappa, V domains shown, Humanized, IgG1-P238K; supernatant sample) VH: QVQLVQSGAEVKKPGSSVKVSCKASGYAFTSYWMHWVRQRPGQGLEWIGFINPTTGYSEYNQKFKDRVTITADKSTSTAYMELNSLRSEDTAVYYCARWGLPPFAYWGQGTLVTVSS VL: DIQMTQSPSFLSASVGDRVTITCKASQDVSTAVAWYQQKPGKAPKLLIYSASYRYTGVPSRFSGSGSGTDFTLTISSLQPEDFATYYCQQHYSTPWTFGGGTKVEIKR ... 370000
Y12XX-hz36 (antibody, human IgG1, kappa, V domains shown, Humanized, IgG1-P238K; supernatant sample) VH: QVQLVQSGAEVKKPGSSVKVSCKASGYAFTSYWMHWVRQAPGQGLEWMGYINPTTGYSAYNQKFKDKATLTADKSTSTAYMELSSLRSEDTAVYYCARWDARPFAYWGQGTLVTVSS VL: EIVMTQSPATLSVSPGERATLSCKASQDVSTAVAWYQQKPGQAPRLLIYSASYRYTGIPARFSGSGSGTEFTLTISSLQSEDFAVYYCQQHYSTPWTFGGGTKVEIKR ... 390000

# input binder: Y12XX-hz15 (antibody, human IgG1, kappa, V domains shown, Humanized, IgG1-P238K; supernatant sample) VH: QVQLVQSGAEVKKPGSSVKVSCKASGYAFTSYWMHWVRQAPGQGLEWMGFINPTTGYSEYNQKFKDRVTITADKSTSTAYMELSSLRSEDTAVYYCARWGLPPFAYWGQGTLVTVSS VL: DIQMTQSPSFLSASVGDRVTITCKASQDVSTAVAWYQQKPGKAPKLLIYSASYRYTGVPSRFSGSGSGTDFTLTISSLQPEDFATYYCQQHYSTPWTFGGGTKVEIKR ; wanted: its kon
16000

I'd like to know its kon. The binder in question is Y12XX-hz1 (antibody, human IgG1, kappa, V domains shown, Humanized, IgG1-P238K; supernatant sample) VH: QVQLVQSGAEVKKPGSSVKVSCKASGYAFTSYWMHWVRQAPGQGLEWMGFINPTTGYSEYNQKFKDRVTITADKSTSTAYMELSSLRSEDTAVYYCARWGLPPFAYWGQGTLVTVSS VL: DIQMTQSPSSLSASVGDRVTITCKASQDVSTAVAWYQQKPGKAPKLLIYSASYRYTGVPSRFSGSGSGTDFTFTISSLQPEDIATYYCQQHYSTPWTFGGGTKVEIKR
15000

Which kon reading was recorded for the binder Y12XX-hz27 (antibody, human IgG1, kappa, V domains shown, Humanized, IgG1-P238K; supernatant sample) VH: QVQLVQSGAEVKKPGSSVKVSCKASGYAFTSYWMHWVRQAPGQGLEWMGQINPSNARSQYNEKFKTRVTITADKSTSTAYMELSSLRSEDTAVYYCARWGLQPFAYWGQGTLVTVSS VL: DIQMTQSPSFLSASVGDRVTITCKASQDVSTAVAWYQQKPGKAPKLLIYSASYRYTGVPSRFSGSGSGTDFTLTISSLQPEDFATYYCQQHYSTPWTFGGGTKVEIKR ?
190000

Would you kindly share the measured kon for Y12XX-hz20 (antibody, human IgG1, kappa, V domains shown, Humanized, IgG1-P238K; supernatant sample) VH: QVQLVQSGAEVKKPGSSVKVSCKASGYAFTSYWMHWVRQRPGQGLEWIGYINPTTGYSAYNQKFKDKATLTADKSTSTAYMELNSLRSEDTAVYYCARWDPRPFAYWGQGTLVTVSS VL: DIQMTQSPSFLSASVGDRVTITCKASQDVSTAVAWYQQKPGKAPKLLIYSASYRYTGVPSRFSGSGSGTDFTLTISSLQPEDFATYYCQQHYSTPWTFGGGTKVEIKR ?
310000

Requested field: kon. Item: Y12XX-hz5 (antibody, human IgG1, kappa, V domains shown, Humanized, IgG1-P238K; supernatant sample) VH: QVQLVQSGAEVKKPGSSVKVSCKASGYAFTSYWMHWVRQRPGQGLEWMGYINPTTGYSAYNQKFKDKATLTADKSTSTAYMELSSLRSEDTAVYYCARWDPRPFAYWGQGTLVTVSS VL: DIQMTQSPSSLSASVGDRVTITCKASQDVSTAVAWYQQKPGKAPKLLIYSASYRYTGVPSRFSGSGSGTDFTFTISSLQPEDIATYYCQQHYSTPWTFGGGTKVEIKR
350000
